The reported measurements were obtained from patent US4935431A.

# SYSTEM_NAME: H^+ K^+ ATPase (Sus scrofa, UniProt P19156)
# Construct: Lyophilised gastric vesicles were prepared from pig fundic mucosa
# Sequence (P19156 2-1034 limits assumed): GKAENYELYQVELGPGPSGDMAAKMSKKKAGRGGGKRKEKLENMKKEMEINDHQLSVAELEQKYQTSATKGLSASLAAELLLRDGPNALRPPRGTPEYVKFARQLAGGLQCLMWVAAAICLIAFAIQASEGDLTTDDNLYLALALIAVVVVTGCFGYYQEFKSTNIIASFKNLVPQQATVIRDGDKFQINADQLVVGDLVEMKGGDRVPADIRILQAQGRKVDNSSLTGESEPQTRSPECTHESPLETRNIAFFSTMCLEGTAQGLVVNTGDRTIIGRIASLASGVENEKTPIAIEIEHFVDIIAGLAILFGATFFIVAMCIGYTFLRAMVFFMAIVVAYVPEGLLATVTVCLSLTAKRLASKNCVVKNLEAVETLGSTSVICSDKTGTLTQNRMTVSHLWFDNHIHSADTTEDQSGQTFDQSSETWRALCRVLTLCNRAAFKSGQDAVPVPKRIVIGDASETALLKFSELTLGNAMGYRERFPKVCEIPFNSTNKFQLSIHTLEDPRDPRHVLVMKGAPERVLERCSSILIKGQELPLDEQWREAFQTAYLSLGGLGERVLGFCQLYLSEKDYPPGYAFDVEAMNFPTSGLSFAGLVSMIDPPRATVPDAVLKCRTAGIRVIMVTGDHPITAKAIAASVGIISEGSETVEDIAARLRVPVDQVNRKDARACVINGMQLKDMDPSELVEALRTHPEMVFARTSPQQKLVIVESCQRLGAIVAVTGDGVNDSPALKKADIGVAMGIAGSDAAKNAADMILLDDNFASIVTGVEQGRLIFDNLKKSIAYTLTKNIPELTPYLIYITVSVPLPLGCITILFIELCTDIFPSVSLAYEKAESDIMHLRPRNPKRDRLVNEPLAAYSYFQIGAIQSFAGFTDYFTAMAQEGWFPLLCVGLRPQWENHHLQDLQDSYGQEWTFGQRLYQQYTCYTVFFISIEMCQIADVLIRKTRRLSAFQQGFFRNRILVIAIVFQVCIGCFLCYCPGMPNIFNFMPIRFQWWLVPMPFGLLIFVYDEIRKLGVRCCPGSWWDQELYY
# Sequence (P18434 whole entry partner): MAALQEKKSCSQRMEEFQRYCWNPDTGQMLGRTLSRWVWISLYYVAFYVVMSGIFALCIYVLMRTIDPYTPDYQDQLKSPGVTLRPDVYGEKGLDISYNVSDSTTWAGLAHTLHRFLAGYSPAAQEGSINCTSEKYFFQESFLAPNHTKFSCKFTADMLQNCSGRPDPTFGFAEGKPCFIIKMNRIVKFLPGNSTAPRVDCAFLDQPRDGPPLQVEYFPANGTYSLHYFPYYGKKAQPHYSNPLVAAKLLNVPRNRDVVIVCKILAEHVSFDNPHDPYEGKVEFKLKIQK
# TEST_PROTOCOL: K^+ -stimulated ATPase activity in lyophilised gastric vesicles (H/K-ATPase)
# MEASUREMENT_CONTEXT: lyophilised gastric vesicles from pig fundic mucosa, 37° C., pH 7.0, 30 minutes
Where a name gives a salt, the structure may show the parent alone.
PROPERTY_NAME: IC50 (nM)

Check out these entries, answers already filled in.
COMPOUND: CCCC(=O)c1cnc2ccsc2c1Nc1ccc(O)cc1C [Example 16]
SYSTEM_NAME: H^+ K^+ ATPase (Sus scrofa, UniProt P19156)
PROPERTY_NAME: IC50
MEASURED: 330
--
COMPOUND: CCOC(=O)c1cnc2sccc2c1Nc1ccccc1C [Example 1]
SYSTEM_NAME: H^+ K^+ ATPase (Sus scrofa, UniProt P19156)
PROPERTY_NAME: IC50
MEASURED: 3000
--
COMPOUND: CCCC(=O)c1cnc2c(OC)csc2c1Nc1ccccc1C [Example 9]
SYSTEM_NAME: H^+ K^+ ATPase (Sus scrofa, UniProt P19156)
PROPERTY_NAME: IC50
MEASURED: 13000
--
COMPOUND: CCOC(=O)c1cnc2ccsc2c1NCc1ccccc1 [Example 4]
SYSTEM_NAME: H^+ K^+ ATPase (Sus scrofa, UniProt P19156)
PROPERTY_NAME: IC50
MEASURED: 4300
--
COMPOUND: CCOC(=O)c1cnc2ccsc2c1Nc1ccccc1C [Example 3]
SYSTEM_NAME: H^+ K^+ ATPase (Sus scrofa, UniProt P19156)
PROPERTY_NAME: IC50
MEASURED: 620

[P] CCOC(=O)c1cnc2sccc2c1NCc1ccccc1 [Example 2]
[Q] CCCC(=O)c1cnc2ccsc2c1Nc1ccccc1C [Example 11]
[ask] Dear colleague, could you let me know whether P or Q has the lower recorded IC50? Thanks. Mark your selection by writing its label.
[reply] Q
(Q: 880 nM, P: 9710 nM)

[a] CCCC(=O)c1cnc2ccsc2c1Nc1ccccc1CCC [Example 14, hydrochloride]
[b] CCCC(=O)c1cnc2ccsc2c1Nc1ccc(F)cc1C [Example 12]
[c] CCOC(=O)c1cnc2c(OC)csc2c1Nc1ccccc1C [Example 7]
[ask] Highest IC50 first, then in falling order down to the smallest. Lab note: final answer is the ordered label list.
[reply] c, b, a
(c: 21000 nM, b: 4300 nM, a: 1200 nM)

###

Entries and their RAT GS % inhibition @ 10 μmol/kg
# Tested on: pentagastrin stimulated gastric acid secretion
# TEST_PROTOCOL: Rat Lumen Perfused Stomach (Pentagastrin Stimulated Gastric Acid Secretion)
# Format: in vivo
# MEASUREMENT_CONTEXT: i.v., 10 μmol/kg
Answer in %, number only, no unit symbol.

COMPOUND: CCCC(=O)c1cnc2ccsc2c1Nc1ccccc1C(C)C [Example 15]
MEASURE_UNIT: %
MEASURED: 62

COMPOUND: CCCC(=O)c1cnc2ccsc2c1Nc1ccccc1C [Example 11]
MEASURE_UNIT: %
MEASURED: 55

The compound listed as CCOC(=O)c1cnc2ccsc2c1NCc1ccccc1 [Example 4] has a reported RAT GS % inhibition @ 10 μmol/kg of 19

The compound listed as CCOC(=O)c1cnc2c(C)csc2c1NCc1ccccc1 [Example 6] has a reported RAT GS % inhibition @ 10 μmol/kg of 31

The compound listed as CCCC(=O)c1cnc2ccsc2c1Nc1ccc(F)cc1C [Example 12] has a reported RAT GS % inhibition @ 10 μmol/kg of 38

The compound listed as CCOC(=O)c1cnc2sccc2c1Nc1ccccc1C [Example 1] has a reported RAT GS % inhibition @ 10 μmol/kg of 32

The compound listed as CCOC(=O)c1cnc2sccc2c1NCc1ccccc1 [Example 2] has a reported RAT GS % inhibition @ 10 μmol/kg of 13
